# Test system: A549
# Assay comment: Euclidean distance of Cell Painting phenotypic profile (signed KS, 77 features) to DMSO centroid (dimensionless distance); 5 or 10 uM (library dependent); higher = stronger phenotypic change vs DMSO (phenoactivity)
# Condition summary: 48 h
Counter-ions that a name gives are not always drawn.
Test readout: Euclidean distance

Compound	Test readout	Result value
CNS(=O)(=O)CCc1ccc2[nH]cc(C3CCN(C)CC3)c2c1	Euclidean distance	0.741
O=C(O)[C@]1(Cc2cccc(Nc3nccs3)n2)CC[C@@H](Oc2cccc(Cl)c2F)CC1	Euclidean distance	3.36
C=CCN1CCCC1CNC(=O)c1cc2nn[nH]c2cc1OC (centres undefined) [Alizapride HCl]	Euclidean distance	1.43
CCC1=C(C)CN(C(=O)NCCc2ccc(S(=O)(=O)NC(=O)N[C@H]3CC[C@H](C)CC3)cc2)C1=O [Glimepiride]	Euclidean distance	0.608
COc1ccc2c(c1)c(CC(=O)OCC(=O)O)c(C)n2C(=O)c1ccc(Cl)cc1	Euclidean distance	0.994
COc1cc2ncnc(Nc3cccc(Cl)c3)c2cc1OC	Euclidean distance	1.29
NC(=O)c1ccccc1O [Salicylamide]	Euclidean distance	1.58
CN(C)[C@@H]1C(O)=C(C(N)=O)C(=O)[C@@]2(O)C(O)=C3C(=O)c4c(O)ccc(Cl)c4[C@@](C)(O)[C@H]3C[C@@H]12 [Chlortetracycline HCl]	Euclidean distance	0.912
CS(=O)(=O)Nc1ccc([N+](=O)[O-])cc1Oc1ccccc1 [Nimesulide]	Euclidean distance	1.21
CC(=O)[C@H]1CC[C@H]2[C@@H]3C[C@H](C)C4=CC(=O)CC[C@]4(C)[C@H]3[C@@H](O)C[C@]12C	Euclidean distance	1.8
Fc1ccc([C@@H]2CCNC[C@H]2COc2ccc3c(c2)OCO3)cc1 [Paroxetine HCl]	Euclidean distance	1.59
O=C(O)CCCCC(CCSCc1ccccc1)SCc1ccccc1 (centres undefined)	Euclidean distance	0.928
Nc1[nH]cnc2ncnc1-2 [Adenine sulfate]	Euclidean distance	0.409
O=C1Nc2ccc(Cl)cc2[C@@](C#CC2CC2)(C(F)(F)F)O1	Euclidean distance	1.3
Cc1cccc(C)c1OCC(=O)N[C@@H](Cc1ccccc1)[C@@H](O)C[C@H](Cc1ccccc1)NC(=O)[C@H](C(C)C)N1CCCNC1=O	Euclidean distance	1.69
NC(=O)c1cccc(-c2cccc(OC(=O)NC3CCCCC3)c2)c1	Euclidean distance	0.944
O=c1[nH]cnc2nc[nH]c12	Euclidean distance	1.2
CCCN[C@H]1CCc2nc(N)sc2C1 [Pramipexole]	Euclidean distance	0.915
N=C(N)NCCN1CCCCCCC1 [Guanethidine Monosulfate]	Euclidean distance	1.78
CC[C@@H](CO)NCCN[C@@H](CC)CO [Ethambutol 2HCl]	Euclidean distance	0.663
CC(=O)O[C@H]1C(=O)[C@@]2(C)[C@H]([C@H](OC(=O)c3ccccc3)[C@]3(O)C[C@H](OC(=O)[C@H](O)[C@@H](NC(=O)c4ccccc4)c4ccccc4)C(C)=C1C3(C)C)[C@]1(OC(C)=O)CO[C@@H]1C[C@@H]2O	Euclidean distance	2.6
COC(c1ccccc1)(c1ccccc1)[C@H](Oc1nc(C)cc(C)n1)C(=O)O	Euclidean distance	0.738
CN1C2CCCC1CC(NC(=O)c1nn(C)c3ccccc13)C2 (centres undefined) [Granisetron HCl]	Euclidean distance	0.903
CC(C)Cc1ccc([C@@H](C)C(=O)NS(C)(=O)=O)cc1 [Reparixin (Repertaxin)]	Euclidean distance	0.942
CC(C)(CO)c1cc2cc(NC(=O)C3(c4ccc5c(c4)OC(F)(F)O5)CC3)c(F)cc2n1C[C@@H](O)CO	Euclidean distance	1.89
CCN1CCCC1CNC(=O)c1cc(S(N)(=O)=O)ccc1OC (centres undefined) [Sulpiride]	Euclidean distance	1.29
O=c1ncccn1[C@@H]1O[C@H](CO)[C@@H](O)[C@H]1O	Euclidean distance	1
COc1cc(N)c(Cl)cc1C(=O)NC1CCN(CCCOc2ccc(F)cc2)CC1OC (centres undefined) [Cisapride hydrate]	Euclidean distance	1.16
Cc1ccc(NC(=O)c2ccc(CN3CCN(C)CC3)cc2)cc1Nc1nc(-c2cccnc2)cs1	Euclidean distance	2.76
O=C(O)CNC(=O)c1ncc(-c2cccc(Cl)c2)cc1O	Euclidean distance	1.97
Nc1ccn([C@@H]2O[C@H](CO)[C@@H](O)[C@@H]2O)c(=O)n1 [Cytarabine hydrochloride]	Euclidean distance	3.25
COc1cc(Nc2c(C#N)cnc3cc(OCCCN4CCN(C)CC4)c(OC)cc23)c(Cl)cc1Cl [Bosutinib (SKI-606)]	Euclidean distance	3.56
O=c1ccc2ccc(O)c(O)c2o1	Euclidean distance	0.859
NS(=O)(=O)c1cc2c(cc1Cl)N=C(CSCc1ccccc1)NS2(=O)=O [Benzthiazide]	Euclidean distance	1.17
